protocolDescription: qHTS of pediatric cancer cell lines to identify multiple opportunities for drug repurposing: Primary screen for SK-N-SH cells (AID 1347098); note: nearly all actives have a fitted effect of over 65% in size
conditionSummary: SK-N-SH viability, CellTiter-Glo luminescence, 48 h; series mostly up to 57 µM
Inconclusive results are not listed. The source made the active and inactive calls. Calls come from the whole dose curve; as a rule, active = well fitted cell-killing curve with a large enough effect; inconclusive = small, poorly fitted or top-dose-only effect; inactive = no such curve, though single readings can be large or run the other way.
Your reply should match one of these outcome classes. y (active), n (inactive)

CCOC(=O)OC(C)OC1=C(C(=O)Nc2ccccn2)N(C)S(=O)(=O)c2ccccc21 (stereo not given); n
Cc1ccc(C(=O)C(C)CN2CCCCC2)cc1 (stereo not given); n

Per the records of this test, what outcome belongs to O=c1[nH]c(=O)n([C@H]2C[C@H](O)[C@@H](CO)O2)cc1C(F)(F)F ?
n

Would you mind telling me which call this test gave COC(=O)C1=C(C)NC(C)=C(C(=O)O[C@@H]2CCCN(Cc3ccccc3)C2)[C@@H]1c1cccc([N+](=O)[O-])c1 ?
y

Which outcome did this test record for the molecule CC1(C)OC[C@@H](COC(=O)CCc2ccc(OC[C@@H](O)CNCCNC(=O)N3CCOCC3)cc2)O1 ?
n

Recorded test call requested for OC[C@H]1O[C@H](O[C@]2(CCl)O[C@H](CCl)[C@@H](O)[C@@H]2O)[C@H](O)[C@@H](O)[C@H]1Cl
n

Could you check what this test reported for COc1c2occc2c(OC)c2c(=O)cc(C)oc12 ?
n

Status in this test for C[C@]12CCC(=O)C=C1[C@@H]1C[C@@H]1[C@H]1[C@@H]3[C@@H]4C[C@@H]4[C@@]4(CCC(=O)O4)[C@@]3(C)CC[C@@H]12 ?
n

What outcome does the record of this test show for CC[N+](CC)(CCNC(=O)C(=O)NCC[N+](CC)(CC)Cc1ccccc1Cl)Cc1ccccc1Cl ?
n

Would you mind telling me which call this test gave NC(CO)(CO)CO ?
n
